# Target Under Test: T1, PSMA Fab
# T1 construct: also called Anti-PSMA Fab; 006 PSMA Fab
# Procedure Summary: clonal phage ELISA; biotinylated PSMA Fab on neutravidin plate, wells pre-incubated with PSMA antigen as competitor; anti-M13 HRP detection;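 also: crude clonal phage supernatants added to antigen-treated wells without a wash, incubated briefly, then bound phage read out via horse radish–conjugated anti-M13 antibody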
Where no end group is shown, it is not given here.
Phage binding ELISA signal, Anti-PSMA Fab with PSMA antigen reference
Lab note: jot down the number only; don't add units.

The following binders have reported results that may help.
[[record]]
binder = "WIKECVPDWMCSGF [Phage-3745]"
data_value = 0.0803

[[record]]
binder = "EEMMCKPDWMCYGF [Phage-3755]"
data_value = 0.109

[[record]]
binder = "QSVMCRPAWMCEGF [Phage-3748]"
data_value = 0.0813


For record VPALCVPNWMCSGL [Phage-3749] the listed Phage binding ELISA signal, Anti-PSMA Fab with PSMA antigen is 0.0565

get_value(item= PGKVCEPIWMCLGF (cysteine pairing not given here; also: displayed on phage as pIII fusion) [Phage-3744] , readout=Phage binding ELISA signal, Anti-PSMA Fab with PSMA antigen) returns 0.124
